Measured values drawn from patent US4883863A for this set.

target: plasmin (Homo sapiens, UniProt P00747); test: Inhibitory activity on fibrinogen decomposition by plasmin (natural substrate); type: biochemical; set-up: purchased Sankyo (Color Test α2 -D1 Kit); details: Table 4; 2% fibrinogen, pH 7.2, 37° C.
Sequence (P00747 581-810 limits assumed, species assumed): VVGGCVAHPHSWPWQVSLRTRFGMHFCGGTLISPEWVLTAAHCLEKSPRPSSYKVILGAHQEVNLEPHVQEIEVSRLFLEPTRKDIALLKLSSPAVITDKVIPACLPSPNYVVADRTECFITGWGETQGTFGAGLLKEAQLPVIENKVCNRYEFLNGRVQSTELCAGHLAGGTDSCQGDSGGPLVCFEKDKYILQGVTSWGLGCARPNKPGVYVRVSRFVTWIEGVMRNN
Sequence (P00747 97-580 partner limits assumed, species assumed): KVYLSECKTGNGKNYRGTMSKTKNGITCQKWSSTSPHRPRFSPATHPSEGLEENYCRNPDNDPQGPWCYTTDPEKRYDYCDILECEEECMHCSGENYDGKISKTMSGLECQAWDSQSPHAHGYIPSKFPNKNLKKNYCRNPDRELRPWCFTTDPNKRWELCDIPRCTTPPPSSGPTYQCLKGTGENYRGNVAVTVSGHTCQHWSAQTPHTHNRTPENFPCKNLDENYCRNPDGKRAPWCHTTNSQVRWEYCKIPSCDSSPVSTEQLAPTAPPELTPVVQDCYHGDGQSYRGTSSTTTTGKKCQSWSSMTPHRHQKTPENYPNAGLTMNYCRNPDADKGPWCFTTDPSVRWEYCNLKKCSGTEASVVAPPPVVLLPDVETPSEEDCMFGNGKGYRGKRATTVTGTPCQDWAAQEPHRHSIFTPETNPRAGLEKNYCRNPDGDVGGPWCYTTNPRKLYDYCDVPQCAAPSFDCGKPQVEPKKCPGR
pIC50: −log10 of the molar value. Where a name gives a salt, the structure may show the parent alone. Where a SMILES comes first, the peptide text is derived from it. [ ]: non-standard residue; d: D form. The star is where a group is joined. Tos = Cc1ccc(S(=O)(=O)*)cc1; Moc = COC(=O)*; For = O=C*
MEASURE NAME: pIC50

COMPOUND	REPORTED MEASUREMENT
COC(=O)N[C@H](CCCCNS(=O)(=O)c1ccc(C)cc1)C(=O)N[C@@H](Cc1ccccc1)C(=O)N[C@H](C=O)CCCCN [Compound 2, hydrochloride] (Moc-[dK](Tos)-Phe-Lys-aldehyde)	6.89
Cc1ccc(S(=O)(=O)NCCCC[C@@H](NC=O)C(=O)N[C@@H](Cc2ccccc2)C(=O)N[C@H](C=O)CCCCN)cc1 [Compound 4, hydrochloride] (For-[dK](Tos)-Phe-Lys-aldehyde)	6.72

---

molecular target: thrombin (Homo sapiens, UniProt P00734); construct: purchased Sankyo (Color Test ATIII kit); assay: Thrombin-inhibiting activity, synthetic substrate PS-915; format: biochemical; conditions: Table 3; PS-915, pH 8.5, 37° C.
MEASURE NAME: IC50 (µM)
Answer format: numeric, µM implied, no suffix.

Please report the recorded IC50 for CC(=O)N[C@@H](CC(C)C)C(=O)N[C@@H](CC(C)C)C(=O)N[C@H](C=O)CCCNC(=N)N [Compound A4, AcLeuLeuArgH.1/2H2 SO4.H2 O (leupeptin), reference compound] .
590

---

biological target: plasmin (Homo sapiens, UniProt P00747); assay: Plasmin-inhibiting activity, synthetic substrate PS-994; type: biochemical; design: purchased Sankyo (Color Test α2 -D1 Kit); conditions: Table 4; PS-994, pH 7.8, 37° C.
pIC50: −log10 of the molar value. Structures can show the parent of a compound that is named as a salt. Where a SMILES comes first, the peptide text is derived from it. [ ]: non-standard residue; d: D form. The star is where a group is joined. Tos = Cc1ccc(S(=O)(=O)*)cc1; For = O=C*
MEASURE NAME: pIC50

P = Cc1ccc(S(=O)(=O)NCCCC[C@@H](NC(=O)OCC(C)C)C(=O)N[C@@H](Cc2ccccc2)C(=O)N[C@H](C=O)CCCCN)cc1 [Compound 1, hydrochloride]
Q = Cc1ccc(S(=O)(=O)NCCCC[C@@H](N)C(=O)N[C@@H](Cc2ccccc2)C(=O)N[C@H](C=O)CCCCN)cc1 [Compound 7, dihydrochloride] (H-[dK](Tos)-Phe-Lys-aldehyde)
R = Cc1ccc(S(=O)(=O)NCCCC[C@@H](NC=O)C(=O)N[C@@H](Cc2ccccc2)C(=O)N[C@H](C=O)CCCCN)cc1 [Compound 4, hydrochloride] (For-[dK](Tos)-Phe-Lys-aldehyde)
In ascending order of recorded pIC50, list the compounds from the set above. Answer format: the labels, in the requested order.
Q, R, P
(Q: 6.77, R: 7.02, P: 7.47)

---

biological target: human plasma kallikrein (Homo sapiens); construct: purchased Kabi Co., Ltd; assay: Kallikrein-inhibiting activity, synthetic substrate S-2302; type: biochemical; conditions: Table 4; S-2302, pH 8.0, 37° C.
Sequence (P03952 391-638 limits assumed): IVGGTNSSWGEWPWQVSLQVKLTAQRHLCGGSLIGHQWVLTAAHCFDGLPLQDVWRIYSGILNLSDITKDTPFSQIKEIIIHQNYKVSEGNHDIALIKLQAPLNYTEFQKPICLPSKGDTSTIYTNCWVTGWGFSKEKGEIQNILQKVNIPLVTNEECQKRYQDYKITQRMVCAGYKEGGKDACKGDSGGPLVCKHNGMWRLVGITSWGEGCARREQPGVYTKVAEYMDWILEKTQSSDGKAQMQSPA
Sequence (P03952 20-390 partner limits assumed): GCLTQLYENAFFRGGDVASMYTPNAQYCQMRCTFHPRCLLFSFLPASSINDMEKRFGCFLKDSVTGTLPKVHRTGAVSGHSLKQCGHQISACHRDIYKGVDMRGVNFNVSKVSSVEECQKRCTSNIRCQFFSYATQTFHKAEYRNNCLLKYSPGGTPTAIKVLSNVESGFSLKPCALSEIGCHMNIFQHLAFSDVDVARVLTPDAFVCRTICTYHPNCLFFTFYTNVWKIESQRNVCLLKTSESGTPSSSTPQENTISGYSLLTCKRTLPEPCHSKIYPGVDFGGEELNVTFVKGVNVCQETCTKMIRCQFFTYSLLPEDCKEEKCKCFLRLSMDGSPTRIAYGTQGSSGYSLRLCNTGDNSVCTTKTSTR
pIC50: −log10 of the molar value. Structures can show the parent of a compound that is named as a salt. Where a SMILES comes first, the peptide text is derived from it. [ ]: non-standard residue; d: D form. The star is where a group is joined. Tos = Cc1ccc(S(=O)(=O)*)cc1; Moc = COC(=O)*
MEASURE NAME: pIC50

I = Cc1ccc(S(=O)(=O)NCCCC[C@@H](NC(=O)OCC(C)C)C(=O)N[C@@H](Cc2ccccc2)C(=O)N[C@H](C=O)CCCCN)cc1 [Compound 1, hydrochloride]
II = COC(=O)N[C@H](CCCCNS(=O)(=O)c1ccc(C)cc1)C(=O)N[C@@H](Cc1ccccc1)C(=O)N[C@H](C=O)CCCCN [Compound 2, hydrochloride] (Moc-[dK](Tos)-Phe-Lys-aldehyde)
III = Cc1ccc(S(=O)(=O)NCCCC[C@@H](N)C(=O)N[C@@H](Cc2ccccc2)C(=O)N[C@H](C=O)CCCCN)cc1 [Compound 7, dihydrochloride] (H-[dK](Tos)-Phe-Lys-aldehyde)
IV = CC(=O)N[C@H](CCCCNS(=O)(=O)c1ccc(C)cc1)C(=O)N[C@@H](Cc1ccccc1)C(=O)N[C@H](C=O)CCCCN [Compound 3, hydrochloride] (Ac-[dK](Tos)-Phe-Lys-aldehyde)
Put the above entries in order of falling pIC50. Answer format: the labels, in the requested order.
I, II, III, IV
(I: 6.74, II: 6.44, III: 6.02, IV: 5.31)

---

target: plasmin (Homo sapiens); assay: Inhibitory activity on fibrin decomposition by plasmin (natural substrate); type: biochemical; parameters: Standard human serum (0.1 ml); from tissue; details: Table 3; concentration doubling time for complete dissolution, 25° C.
Sequence (P00747 581-810 limits assumed): as the sequence (P00747 581-810 limits assumed, species assumed) above
Sequence (P00747 97-580 partner limits assumed): as the sequence (P00747 97-580 partner limits assumed, species assumed) above
MEASURE NAME: IC50 (µM)
Answer format: numeric, µM implied, no suffix.

Please report the recorded IC50 for CC(=O)N[C@@H](CC(C)C)C(=O)N[C@@H](CC(C)C)C(=O)N[C@H](C=O)CCCNC(=N)N [Compound A4, AcLeuLeuArgH.1/2H2 SO4.H2 O (leupeptin), reference compound] .
5.5

---

Molecular target: trypsin (Bos taurus, UniProt P00760)
Construct: purchased Worthington 3703
Sequence (P00760 24-246): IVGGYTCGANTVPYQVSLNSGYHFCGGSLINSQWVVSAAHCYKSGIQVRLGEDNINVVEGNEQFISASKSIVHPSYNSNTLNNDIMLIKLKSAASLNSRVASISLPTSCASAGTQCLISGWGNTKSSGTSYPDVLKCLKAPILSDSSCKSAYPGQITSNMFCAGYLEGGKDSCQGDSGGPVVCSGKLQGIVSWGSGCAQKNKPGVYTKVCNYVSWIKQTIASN
Experiment: Trypsin-inhibiting activity, synthetic substrate PS-915
Format: biochemical
Settings: Table 3; PS-915, pH 8.0, 37° C.
MEASURE NAME: pIC50
Keep it numeric: pIC50 is minus log10 of the concentration in mol/L.

Request body: readout pIC50, system trypsin (Bos taurus, UniProt P00760), query CC(=O)N[C@@H](CC(C)C)C(=O)N[C@@H](CC(C)C)C(=O)N[C@H](C=O)CCCNC(=N)N [Compound A4, AcLeuLeuArgH.1/2H2 SO4.H2 O (leupeptin), reference compound] . Return the value.
6.11

---

target: human Factor Xa (Homo sapiens, UniProt P00742); construct: purchased Boehringer Manheim Co., Ltd; test: Factor Xa-inhibiting activity, synthetic substrate PS-2000; format: biochemical; settings: Table 4; PS-2000, pH 8.5, 37° C.
Sequence (P00742 235-488 limits assumed): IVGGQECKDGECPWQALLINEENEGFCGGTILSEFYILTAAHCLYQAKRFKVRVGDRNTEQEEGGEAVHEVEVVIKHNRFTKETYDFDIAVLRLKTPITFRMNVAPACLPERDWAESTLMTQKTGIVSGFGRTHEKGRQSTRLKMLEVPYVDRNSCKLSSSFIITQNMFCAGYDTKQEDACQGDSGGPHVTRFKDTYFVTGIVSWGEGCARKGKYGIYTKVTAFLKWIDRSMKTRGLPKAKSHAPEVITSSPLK
Sequence (P00742 41-179 partner limits assumed): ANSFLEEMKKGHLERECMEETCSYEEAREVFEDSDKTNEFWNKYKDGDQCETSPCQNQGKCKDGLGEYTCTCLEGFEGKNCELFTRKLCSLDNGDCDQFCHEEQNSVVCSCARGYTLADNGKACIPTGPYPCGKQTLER
Where a name gives a salt, the structure may show the parent alone. Where a SMILES comes first, the peptide text is derived from it. [ ]: non-standard residue; d: D form. The star is where a group is joined. Tos = Cc1ccc(S(=O)(=O)*)cc1; Moc = COC(=O)*; For = O=C*
MEASURE NAME: IC50 (µM)

Study these solved cases before continuing.
COMPOUND	MEASURE NAME	REPORTED MEASUREMENT
Cc1ccc(S(=O)(=O)NCCCC[C@@H](NC(=O)OCC(C)C)C(=O)N[C@@H](Cc2ccccc2)C(=O)N[C@@H](CCCCN)C(=O)CCl)cc1 [Compound 13, hydrochloride]	IC50	2.9
Cc1ccc(S(=O)(=O)NCCCC[C@@H](NC=O)C(=O)N[C@@H](Cc2ccccc2)C(=O)N[C@H](C=O)CCCCN)cc1 [Compound 4, hydrochloride] (For-[dK](Tos)-Phe-Lys-aldehyde)	IC50	85

A = Cc1ccc(S(=O)(=O)NCCCC[C@@H](NC(=O)OCC(C)C)C(=O)N[C@@H](Cc2ccccc2)C(=O)N[C@H](C=O)CCCCN)cc1 [Compound 1, hydrochloride]
B = COC(=O)N[C@H](CCCCNS(=O)(=O)c1ccc(C)cc1)C(=O)N[C@@H](Cc1ccccc1)C(=O)N[C@H](C=O)CCCCN [Compound 2, hydrochloride] (Moc-[dK](Tos)-Phe-Lys-aldehyde)
C = Cc1ccc(S(=O)(=O)NCCCC[C@@H](N)C(=O)N[C@@H](Cc2ccccc2)C(=O)N[C@H](C=O)CCCCN)cc1 [Compound 7, dihydrochloride] (H-[dK](Tos)-Phe-Lys-aldehyde)
Could you please sort these 3 entries by IC50 from high to low? Answer format: the labels, in the requested order.
C, B, A

---

target: human Factor Xa (Homo sapiens); construct: purchased Boehringer Manheim Co., Ltd; assay: Factor Xa-inhibiting activity, synthetic substrate PS-2000; type: biochemical; conditions: Table 4; PS-2000, pH 8.5, 37° C.
pIC50: −log10 of the molar value. Where a name gives a salt, the structure may show the parent alone. Where a SMILES comes first, the peptide text is derived from it. [ ]: non-standard residue; d: D form. The star is where a group is joined. Tos = Cc1ccc(S(=O)(=O)*)cc1
MEASURE NAME: pIC50

A = CC(=O)N[C@H](CCCCNS(=O)(=O)c1ccc(C)cc1)C(=O)N[C@@H](Cc1ccccc1)C(=O)N[C@H](C=O)CCCCN [Compound 3, hydrochloride] (Ac-[dK](Tos)-Phe-Lys-aldehyde)
B = Cc1ccc(S(=O)(=O)NCCCC[C@@H](NS(=O)(=O)c2ccc(C)cc2)C(=O)N[C@@H](Cc2ccccc2)C(=O)N[C@H](C=O)CCCCN)cc1 [Compound 5, hydrochloride] (Tos-[dK](Tos)-Phe-Lys-aldehyde)
I'd appreciate it if you could identify which of A and B has the greater pIC50. Answer by quoting the chosen item's label.
B
